The following compounds are shown together with reported hERG current change (%, negative = inhibition) at 10uM values.
Target: human ether-à-go-go-related gene (hERG) potassium channel (human, UniProt Q12809);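 note: peak tail current of the secondary pulse compared with the same well before compound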
Sequence (Q12809 whole entry, looked up): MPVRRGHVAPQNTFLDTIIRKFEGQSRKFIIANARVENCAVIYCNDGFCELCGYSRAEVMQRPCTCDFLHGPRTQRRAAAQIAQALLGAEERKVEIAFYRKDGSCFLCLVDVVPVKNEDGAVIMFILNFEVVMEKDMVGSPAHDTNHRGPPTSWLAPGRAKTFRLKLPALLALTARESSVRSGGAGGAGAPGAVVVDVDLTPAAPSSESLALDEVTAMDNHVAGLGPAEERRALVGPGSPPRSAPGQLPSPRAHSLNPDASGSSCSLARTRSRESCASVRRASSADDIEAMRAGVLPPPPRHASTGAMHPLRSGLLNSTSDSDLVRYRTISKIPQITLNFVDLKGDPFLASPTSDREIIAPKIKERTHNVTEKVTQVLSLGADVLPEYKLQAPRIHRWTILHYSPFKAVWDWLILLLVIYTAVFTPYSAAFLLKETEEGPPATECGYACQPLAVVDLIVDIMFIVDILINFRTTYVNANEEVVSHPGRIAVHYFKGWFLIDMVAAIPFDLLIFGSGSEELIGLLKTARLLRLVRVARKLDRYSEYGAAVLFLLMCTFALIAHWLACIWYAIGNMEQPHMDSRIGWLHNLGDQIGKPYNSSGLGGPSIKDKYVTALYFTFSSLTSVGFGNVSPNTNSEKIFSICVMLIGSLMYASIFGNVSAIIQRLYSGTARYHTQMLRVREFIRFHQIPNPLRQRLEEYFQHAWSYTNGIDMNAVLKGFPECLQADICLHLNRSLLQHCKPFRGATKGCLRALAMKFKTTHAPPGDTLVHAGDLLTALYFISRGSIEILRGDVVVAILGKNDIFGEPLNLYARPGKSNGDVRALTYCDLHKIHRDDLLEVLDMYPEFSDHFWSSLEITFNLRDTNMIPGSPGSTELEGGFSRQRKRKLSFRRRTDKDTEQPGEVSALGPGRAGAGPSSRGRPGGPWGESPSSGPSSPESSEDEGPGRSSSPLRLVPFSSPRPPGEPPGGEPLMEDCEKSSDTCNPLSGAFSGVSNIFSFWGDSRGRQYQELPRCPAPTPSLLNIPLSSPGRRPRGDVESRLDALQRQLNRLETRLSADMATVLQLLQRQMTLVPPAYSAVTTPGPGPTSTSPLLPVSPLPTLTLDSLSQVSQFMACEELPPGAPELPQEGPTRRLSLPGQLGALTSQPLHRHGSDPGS
Test: primary screen, population patch clamp on CHO cells stably expressing hERG; higher = less effect of the substance
Experimental: Briefly, Chinese hamster ovary (CHO) cells stably expressing the hERG channel were dislodged from tissue culture flasks and dispensed into PPC plates. […] During the recording, background leak currents were estimated by a 100 ms step to -80 mV from an initial holding potential of -70 mV and subtracted from the subsequent current measurement. The campaign was conducted in two phases using slight differences in recording protocol. […]
In all, about 310,000 compounds went through this assay and about 14,000 (4.5%) showed an effect of 50% or more. Effects have a minus sign here. This is one part of a sample in which strong results are shown more often than they occur.

A selection of reference data follows.
| COMPOUND | RESULT |
| --- | --- |
| Cl.c1cncc(CNc2ncnc3sc4c(c23)CCC4)c1 | -56.2% |
| COc1cc(OC)cc(C(=O)NCCSc2c[nH]c3ccccc23)c1 | -17.1% |
| Cc1sc2ncnc(NCC(c3ccco3)N3CCCC3)c2c1C (stereo not shown) | -51.5% |
| Cc1sc2ncnc(N(C)Cc3ccco3)c2c1C | -4.64% |
| Cc1ccc(S(=O)(=O)N(C)c2ccc(OCC(=O)Nc3nc(-c4ccccc4)cs3)cc2)cc1 | 14.3% |
| COc1ccc(NC(=S)N2CCCC(c3nc4ccc(C)cc4[nH]3)C2)cc1 (stereo not shown) | -10.5% |
| COc1ccccc1N1CCN(CCNC(=O)Nc2cccc(C)c2C)CC1 | -68.8% |
| CN(C)C(CNc1ncnc2sc3c(c12)CCCCC3)c1ccco1 (stereo not shown) | -35.4% |
| Cl.c1cc(Nc2ncnc3sc4c(c23)CCC4)ccn1 | 19.3% |

// below: hERG current change (%, negative = inhibition) at 10uM requested for another compound
Please look at "Cc1sc2ncnc(N(C)Cc3cccs3)c2c1C" and tell me its recorded hERG current change (%, negative = inhibition) at 10uM on human ether-à-go-go-related gene (hERG) potassium channel (human, UniProt Q12809).
-53%

----------
target: human ether-à-go-go-related gene (hERG) potassium channel (human, UniProt Q12809); test: primary screen, population patch clamp on CHO cells stably expressing hERG; higher = less effect of the substance;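 note: peak tail current of the secondary pulse compared with the same well before compound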
Out of some 310,000 compounds screened, about 14,000 (4.5%) showed an effect of 50% or more. Effects have a minus sign here. The list comes from a sample in which strong results are over-represented; it also holds close analogues and randomly drawn compounds.
QUANTITY: hERG current change (%, negative = inhibition) at 10uM (%)
The answer is to be given in %; state only the numeric part.

Give the reported value of hERG current change (%, negative = inhibition) at 10uM for this record: "O=c1[nH]c(C2CCN(S(=O)(=O)c3ccc(S(=O)(=O)NC4CC4)cc3)CC2)nc2c1nnn2Cc1ccc(F)cc1"
3.81

Give the reported value of hERG current change (%, negative = inhibition) at 10uM for this record: "COC(=O)c1ccc(Cn2nnc3c(=O)[nH]c(C4CCN(S(=O)(=O)c5ccc(F)cc5)CC4)nc32)cc1"
-70.3

Give the reported value of hERG current change (%, negative = inhibition) at 10uM for this record: "CCN(CC)c1ccc(C(=O)OCC(=O)Nc2sccc2C#N)cc1"
12.2

Give the reported value of hERG current change (%, negative = inhibition) at 10uM for this record: "Cc1oc2c(c(C)cc3oc(=O)c(CC(=O)N[C@H](C(=O)O)C(C)C)c(C)c32)c1C"
15.2
